Taken from patent US5599974A.

molecular target: human hemoglobin (HbA) (Homo sapiens); construct: hemoglobin solution; assay: Oxygen equilibrium studies of hemoglobin solutions (Hem-O-Scan oxygen dissociation curves); type: biochemical; details: hemoglobin solution; Hb 2.7 mM, compound 10 mM (approx. 4:1), 50 mM HEPES pH 7.4, incubated at 4° C. for two hours
MEASUREMENT LABEL: P50 D (aver.) (mm Hg)
I only need the number, in mm Hg, no unit after it.

Request: P50 D (aver.), test system human hemoglobin (HbA) (Homo sapiens), entry `O=Cc1ccc(OCCCOc2ccc(C=O)cc2C(=O)O)c(C(=O)O)c1`
44.0

Request: P50 D (aver.), test system human hemoglobin (HbA) (Homo sapiens), entry `O=Cc1ccc(OCc2cccc(COc3ccc(C=O)cc3C(=O)O)c2)c(C(=O)O)c1`
26.0

Request: P50 D (aver.), test system human hemoglobin (HbA) (Homo sapiens), entry `CC(=O)Oc1ccc(C=O)cc1C(=O)O`
21.0

Request: P50 D (aver.), test system human hemoglobin (HbA) (Homo sapiens), entry `O=Cc1ccc(OC(=O)c2ccc(C(=O)Oc3ccc(C=O)cc3C(=O)O)cc2)c(C(=O)O)c1`
16.0

Request: P50 D (aver.), test system human hemoglobin (HbA) (Homo sapiens), entry O=Cc1ccc(OC(=O)C(=O)Oc2ccc(C=O)cc2C(=O)O)c(C(=O)O)c1 [TB77, bis(2-carboxy-4-formylphenyl)-oxalate]
19.5

Request: P50 D (aver.), test system human hemoglobin (HbA) (Homo sapiens), entry `O=Cc1ccc(OCOc2ccc(C=O)cc2C(=O)O)c(C(=O)O)c1`
51.0

Request: P50 D (aver.), test system human hemoglobin (HbA) (Homo sapiens), entry `O=Cc1ccc(OCc2ccccc2COc2ccc(C=O)cc2C(=O)O)c(C(=O)O)c1`
31.0

Request: P50 D (aver.), test system human hemoglobin (HbA) (Homo sapiens), entry `O=Cc1ccc(OCCCCCCOc2ccc(C=O)cc2C(=O)O)c(C(=O)O)c1`
39.0

====

molecular target: human hemoglobin (HbA) (Homo sapiens); construct: hemoglobin solution; test: Oxygen equilibrium studies of hemoglobin solutions (Hem-O-Scan oxygen dissociation curves); type: biochemical; conditions: hemoglobin solution; Hb 2.7 mM, compound 10 mM (approx. 4:1), 50 mM HEPES pH 7.4, incubated at 4° C. for two hours
MEASUREMENT LABEL: P50 D (aver.) (mm Hg)
I only need the number, in mm Hg, no unit after it.

# P50 D (aver.) lookup, item O=Cc1ccc(OCc2ccc(COc3ccc(C=O)cc3C(=O)O)cc2)c(C(=O)O)c1 [TB11]
24.0

# P50 D (aver.) lookup, item O=Cc1ccc(OCc2ccc(C(=O)O)cc2)c(C(=O)O)c1 [TB34]
14.0

# P50 D (aver.) lookup, item O=Cc1ccc(OCCCCCCCCOc2ccc(C=O)cc2C(=O)O)c(C(=O)O)c1 [TB58]
37.0

# P50 D (aver.) lookup, item O=Cc1ccc(O)c(C(=O)O)c1 [MS1, 5-formylsalicyclic acid]
21.0

# P50 D (aver.) lookup, item O=Cc1ccc(OCCCCCOc2ccc(C=O)cc2C(=O)O)c(C(=O)O)c1 [TB57]
33.0

# P50 D (aver.) lookup, item O=Cc1ccc(OCCCCCCCCCCOc2ccc(C=O)cc2C(=O)O)c(C(=O)O)c1 [TB73]
33.0

# P50 D (aver.) lookup, item O=Cc1ccc(OC(=O)CCC(=O)Oc2ccc(C=O)cc2C(=O)O)c(C(=O)O)c1 [TB80, bis(2-carboxy-4-formylphenyl)-succinate]
14.5

# P50 D (aver.) lookup, item O=Cc1ccc(OCCCCOc2ccc(C=O)cc2C(=O)O)c(C(=O)O)c1 [TB19]
42.0

# P50 D (aver.) lookup, item CC(CCCOc1ccc(C=O)cc1C(=O)O)Oc1ccc(C=O)cc1C(=O)O (stereo not drawn) [TB72]
30.0

====

target: human hemoglobin (HbA) (Homo sapiens); construct: hemoglobin solution; test: Oxygen equilibrium studies of hemoglobin solutions (Hem-O-Scan oxygen dissociation curves); format: biochemical; settings: hemoglobin solution; Hb 2.7 mM, compound 10 mM, 50 mM HEPES pH 7.4; positive = right shift
MEASUREMENT LABEL: ΔP50 (P50 D - P50 C) (mm Hg)
I only need the number, in mm Hg, no unit after it.

# ΔP50 (P50 D - P50 C) lookup, item `O=Cc1ccc(OCCCCOc2ccc(C(=O)O)cc2)c(C(=O)O)c1`
4

# ΔP50 (P50 D - P50 C) lookup, item `O=Cc1ccc(OCCCOc2ccc(C=O)cc2C(=O)O)c(C(=O)O)c1`
22.0

# ΔP50 (P50 D - P50 C) lookup, item `O=Cc1ccc(C(=O)O)cc1`
2.0

# ΔP50 (P50 D - P50 C) lookup, item O=Cc1ccc(OC(=O)/C=C/C(=O)Oc2ccc(C=O)cc2C(=O)O)c(C(=O)O)c1 [TB40, bis(2-carboxy-4-formylphenyl)-fumerate]
-6.0

# ΔP50 (P50 D - P50 C) lookup, item `O=Cc1ccc(OCCCCCCCCCCOc2ccc(C=O)cc2C(=O)O)c(C(=O)O)c1`
11.0

# ΔP50 (P50 D - P50 C) lookup, item `O=Cc1ccc(O)c(C(=O)O)c1`
1.0

# ΔP50 (P50 D - P50 C) lookup, item `O=Cc1ccc(OCCOc2ccc(C=O)cc2C(=O)O)c(C(=O)O)c1`
24.0

# ΔP50 (P50 D - P50 C) lookup, item CC(CCCOc1ccc(C=O)cc1C(=O)O)Oc1ccc(C=O)cc1C(=O)O (centres unmarked)
8.0

# ΔP50 (P50 D - P50 C) lookup, item O=Cc1ccc(OC(=O)CCC(=O)Oc2ccc(C=O)cc2C(=O)O)c(C(=O)O)c1 [TB80, bis(2-carboxy-4-formylphenyl)-succinate]
-5.5

# ΔP50 (P50 D - P50 C) lookup, item `CC(=O)Oc1ccc(C=O)cc1C(=O)O`
-1.0

# ΔP50 (P50 D - P50 C) lookup, item `O=Cc1ccc(OCc2ccccc2COc2ccc(C=O)cc2C(=O)O)c(C(=O)O)c1`
9.5

# ΔP50 (P50 D - P50 C) lookup, item `O=Cc1ccc(OCCCCCCCCOc2ccc(C=O)cc2C(=O)O)c(C(=O)O)c1`
15.0

# ΔP50 (P50 D - P50 C) lookup, item `O=Cc1ccc(OCc2ccc(C(=O)O)cc2)c(C(=O)O)c1`
-6.0

# ΔP50 (P50 D - P50 C) lookup, item `O=Cc1ccc(OCCCCCCOc2ccc(C=O)cc2C(=O)O)c(C(=O)O)c1`
17.0

# ΔP50 (P50 D - P50 C) lookup, item `O=Cc1ccc(OCCCCOc2ccc(C=O)cc2C(=O)O)c(C(=O)O)c1`
20.0

# ΔP50 (P50 D - P50 C) lookup, item `O=Cc1ccc(OC(=O)c2ccc(C(=O)Oc3ccc(C=O)cc3C(=O)O)cc2)c(C(=O)O)c1`
-4.0

# ΔP50 (P50 D - P50 C) lookup, item `O=Cc1ccc(OCOc2ccc(C=O)cc2C(=O)O)c(C(=O)O)c1`
29.0

====

biological target: human hemoglobin (HbA) (Homo sapiens, UniProt P69905); construct: hemoglobin solution; assay: Oxygen equilibrium studies of hemoglobin solutions (Hem-O-Scan oxygen dissociation curves); format: biochemical; settings: hemoglobin solution; Hb 2.7 mM, compound 10 mM (approx. 4:1), 50 mM HEPES pH 7.4, incubated at 4° C. for two hours
Sequence (P69905 whole entry): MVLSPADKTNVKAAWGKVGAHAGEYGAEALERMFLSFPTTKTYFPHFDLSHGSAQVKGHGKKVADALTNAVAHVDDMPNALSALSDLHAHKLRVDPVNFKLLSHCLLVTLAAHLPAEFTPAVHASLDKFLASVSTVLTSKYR
Sequence (P68871 whole entry partner): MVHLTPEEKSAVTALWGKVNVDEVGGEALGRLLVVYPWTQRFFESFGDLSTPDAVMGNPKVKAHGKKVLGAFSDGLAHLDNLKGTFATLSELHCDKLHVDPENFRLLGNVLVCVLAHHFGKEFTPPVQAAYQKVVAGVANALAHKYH
Exercise: for every item that follows, state its recorded P50 D (aver.).
I only need the number, in mm Hg, no unit after it.

# P50 D (aver.) lookup, item O=Cc1ccc(OC(=O)/C=C/C(=O)Oc2ccc(C=O)cc2C(=O)O)c(C(=O)O)c1 [TB40, bis(2-carboxy-4-formylphenyl)-fumerate]
14.0

# P50 D (aver.) lookup, item `O=Cc1ccc(OCCCCOc2ccc(C(=O)O)cc2)c(C(=O)O)c1`
25

# P50 D (aver.) lookup, item `O=Cc1ccc(C(=O)O)cc1`
21.0

# P50 D (aver.) lookup, item `O=Cc1ccc(OCC=CCOc2ccc(C=O)cc2C(=O)O)c(C(=O)O)c1`
40.0

# P50 D (aver.) lookup, item `O=Cc1ccc(OCCOc2ccc(C=O)cc2C(=O)O)c(C(=O)O)c1`
46.0

====

Target: human hemoglobin (HbA) (Homo sapiens, UniProt P69905)
Construct: hemoglobin solution
Experiment: Oxygen equilibrium studies of hemoglobin solutions (Hem-O-Scan oxygen dissociation curves)
Format: biochemical
Details: hemoglobin solution; Hb 2.7 mM, compound 10 mM, 50 mM HEPES pH 7.4; positive = right shift
Method: In blood, hemoglobin is in equilibrium between two allosteric structures. In the "T" (for tense) state, hemoglobin is de-oxygenated. In the "R" (for relaxed) state, hemoglobin is oxygenated. […] If a horizontal line is drawn from the 50% oxygen saturation point to the scanned curve and a vertical line is drawn from the intersection point of the horizontal line with the curve to the partial pressure X-axis, a value commonly known as the P50 is determined. […]
Tick Condition met if ΔP50 (P50 D - P50 C) is 2 mm Hg or greater. Tick Condition not met if ΔP50 (P50 D - P50 C) is less than 2 mm Hg.

Form field: ΔP50 (P50 D - P50 C) at least 2 mm Hg? Entry: `O=Cc1ccc(OCc2ccc(COc3ccc(C=O)cc3C(=O)O)cc2)c(C(=O)O)c1`
Condition met

Form field: ΔP50 (P50 D - P50 C) at least 2 mm Hg? Entry: `O=Cc1ccc(OCCCCCOc2ccc(C=O)cc2C(=O)O)c(C(=O)O)c1`
Condition met

Form field: ΔP50 (P50 D - P50 C) at least 2 mm Hg? Entry: `O=Cc1ccc(OCC=CCOc2ccc(C=O)cc2C(=O)O)c(C(=O)O)c1`
Condition met

Form field: ΔP50 (P50 D - P50 C) at least 2 mm Hg? Entry: O=Cc1ccc(OC(=O)C(=O)Oc2ccc(C=O)cc2C(=O)O)c(C(=O)O)c1 [TB77, bis(2-carboxy-4-formylphenyl)-oxalate]
Condition not met

Form field: ΔP50 (P50 D - P50 C) at least 2 mm Hg? Entry: `O=Cc1ccc(OCc2cccc(COc3ccc(C=O)cc3C(=O)O)c2)c(C(=O)O)c1`
Condition met
